# test.system: Androgen receptor (Homo sapiens)
# Sequence (P10275 whole entry): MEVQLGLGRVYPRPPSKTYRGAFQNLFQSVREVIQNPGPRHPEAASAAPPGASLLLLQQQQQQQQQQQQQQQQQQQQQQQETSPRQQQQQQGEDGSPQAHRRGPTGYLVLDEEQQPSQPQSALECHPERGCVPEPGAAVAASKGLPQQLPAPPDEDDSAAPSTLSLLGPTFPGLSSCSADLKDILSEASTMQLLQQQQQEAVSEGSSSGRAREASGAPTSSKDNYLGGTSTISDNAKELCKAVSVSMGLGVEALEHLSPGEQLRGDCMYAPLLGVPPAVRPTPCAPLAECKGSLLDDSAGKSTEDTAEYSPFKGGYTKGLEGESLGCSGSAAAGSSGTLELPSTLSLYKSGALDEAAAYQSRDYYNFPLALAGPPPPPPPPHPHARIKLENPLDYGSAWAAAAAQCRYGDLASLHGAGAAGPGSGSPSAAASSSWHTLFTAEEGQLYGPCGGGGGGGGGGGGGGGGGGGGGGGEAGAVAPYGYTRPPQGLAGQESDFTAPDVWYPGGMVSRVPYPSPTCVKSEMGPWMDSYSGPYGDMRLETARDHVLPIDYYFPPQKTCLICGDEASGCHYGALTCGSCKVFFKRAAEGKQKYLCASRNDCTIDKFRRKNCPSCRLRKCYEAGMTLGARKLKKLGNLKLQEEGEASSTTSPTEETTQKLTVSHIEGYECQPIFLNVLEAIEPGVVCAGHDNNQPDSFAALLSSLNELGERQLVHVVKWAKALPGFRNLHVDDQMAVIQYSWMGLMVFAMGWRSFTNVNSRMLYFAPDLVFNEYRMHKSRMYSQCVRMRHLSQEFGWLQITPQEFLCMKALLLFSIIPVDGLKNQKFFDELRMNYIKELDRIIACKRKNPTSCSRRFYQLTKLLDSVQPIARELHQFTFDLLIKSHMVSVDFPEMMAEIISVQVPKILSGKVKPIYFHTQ
# assay.comment: Activation of androgen receptor (unknown origin) by fluorescence polarization based competition assay
pEC50: −log10 of the molar value.
observation.type: pEC50

Look up pEC50 with Androgen receptor (Homo sapiens) for this molecule: O=C(O)c1cc(C(F)(F)F)c2cc(N3CCC4(C=C(c5c(-c6c(Cl)cncc6Cl)noc5C5CC5)C4)CC3)ccc2n1
< 4.40

----------
Reported values: IC50 for Cytochrome P450 2C8 (Homo sapiens, UniProt P10632), one per item.
# number only, unit µM dropped from output

Below: 3 compounds and their reported IC50.
O=C(O)c1ccc(N2CCC3(C=C(c4c(-c5c(Cl)cccc5Cl)noc4C4CC4)C3)CC2)nc1	8.2
O=C(O)c1cc(F)c2nc(N3CCC4(C=C(c5c(-c6c(Cl)cccc6Cl)noc5C5CC5)C4)CC3)sc2c1	6.9
O=C(O)c1ccc2cc(N3CCC4(C=C(c5c(-c6c(Cl)cccc6Cl)noc5C5CC5)C4)CC3)ccc2n1	5.6

API: value(readout=IC50, system=Cytochrome P450 2C8 (Homo sapiens, UniProt P10632)) for record O=C(O)c1ccc2cc(N3CCC4(C=C(c5c(-c6c(Cl)cncc6Cl)noc5C5CC5)C4)CC3)ccc2n1
8.5
